test target: Catechol O-methyltransferase (Homo sapiens) (UniProt P21964)
Sequence (P21964 whole entry, looked up): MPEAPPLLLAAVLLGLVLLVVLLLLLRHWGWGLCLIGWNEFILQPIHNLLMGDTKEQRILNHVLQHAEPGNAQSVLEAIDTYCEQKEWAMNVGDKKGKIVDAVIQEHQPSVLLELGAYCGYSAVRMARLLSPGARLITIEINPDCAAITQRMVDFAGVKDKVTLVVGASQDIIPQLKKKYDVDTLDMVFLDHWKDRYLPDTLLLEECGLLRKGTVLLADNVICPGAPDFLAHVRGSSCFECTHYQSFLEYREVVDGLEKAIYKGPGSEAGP
experimental protocol: Primary Screen for Target Class Profiling of Small Molecule Inhibitors of Methyltransferases; note: % is set by controls: 0 for no effect and ±100 for the full control effect
recorded conditions: purified enzyme, MTase-Glo SAH luminescence; at 40 µM, stronger effect = lower value
Out of some 25,000 compounds screened, about 970 (3.9%) were called active. Another 8% or so got no clear call; they are omitted. The entries come from a sample that favours actives as a whole.
measured attribute: activity change, negative = inhibition (%)

compound | value units | reported result
COc1ccc(OC)c(CCNC(=O)CCn2ccc3cc(S(=O)(=O)N4CCCC4)ccc32)c1 | % | 1.88
CC1(C(=O)NC2CCCC2)Cn2c(cc3ccccc32)C(=O)N1c1ccc(F)cc1 (stereo not given) | % | 1
Cc1cnc(-c2ccncc2)n1CCN | % | -5.2
Cc1c(NS(=O)(=O)c2cccc3c2C(=O)c2ccccc2C3=O)c(=O)n(-c2ccccc2)n1C | % | -6.91
Cc1cc(Cl)ccc1OCC(=O)N1CC(CO)C2(CCNCC2)C1 (stereo not given) | % | 2.63
COCCCn1c(=O)[nH]c2cccnc21 | % | -9.36
COCCn1c(=O)c(C(=O)N2CCN(C(C)=O)CC2)nc2cccnc21 | % | -9.78
O=C(NCc1cc2n(n1)CCCN(C1CCCCC1)C2)c1cccc(F)c1 | % | -1.85
CCOCCCN1C(=O)c2cc3ccccc3n2CC1(C)C(=O)NCCC(C)C (stereo not given) | % | 4
CCNC(=O)C#Cc1ccc2c(C(=Nc3ccc(CN(C)C)cc3)c3ccccc3)c(O)[nH]c2c1 | % | -18.4
